Values from patent US20160024210A1

Subject of test: T1, human H7CR (B7-H7 counter-receptor) (human, UniProt Q96BF3 23-282)
T1 construct: Used for H7CR on CHO.hH7CR transfectants, human T cells and tonsil tissue; also called B7-H7CR; CD28H
T1 sequence: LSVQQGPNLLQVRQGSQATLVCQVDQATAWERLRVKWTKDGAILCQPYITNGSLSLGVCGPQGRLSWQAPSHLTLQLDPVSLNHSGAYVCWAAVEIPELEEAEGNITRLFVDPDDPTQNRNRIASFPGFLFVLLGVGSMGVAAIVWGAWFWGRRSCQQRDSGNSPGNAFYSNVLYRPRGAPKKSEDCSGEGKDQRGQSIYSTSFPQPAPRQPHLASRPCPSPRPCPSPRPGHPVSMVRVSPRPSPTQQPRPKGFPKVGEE
Protocol notes: binding to human H7CR as endogenously expressed on the surface of a cell

>  <Binder>
4.5 humanized variant 8 (HC1-2 / LC1-2) (antibody, V domains shown, Variable domains only; detected with anti-hIg secondary; also called VH1B / VL1B) VH: QVQLQESGPGLVKPSQTLSLTCTVSGFSITTGGYYWNWIRQHPGKKLEWIGYIYTSGRTSYNPSLKSRVTISRDTSKNQFSLKLSSVTAADTAVYYCADMADKGGWFAYWGQGTLVTVSS VL: DIVMTQSPDSLAVSLGERATINCKSSQSLFSSNTKRNYLNWYQQKPGQPPKLLIYHASTRLSGVPDRFSGSGSGTDFTLTISSLQAEDVADYFCQQHYETPLTFGDGTRLEIK

>  <binding result>
binds

$$$$
>  <Binder>
4.5 humanized variant 25 (HC2-2 / LC1-1) (antibody, V domains shown, Variable domains only; detected with anti-hIg secondary; also called VH2B / VL1A) VH: QITLKESGPTLVKPTQTLTLTCTVSGFSITTGGYYWNWIRQPPGKKLEWLALIYTSGRTSYNPSLKSRLTITKDTSKNQVVLTMTNMDPVDTATYYCADMADKGGWFAYWGQGTLVTVSS VL: DIVMTQSPDSLAVSLGERATINCKSSQSLFSSNTKRNYLAWYQQKPGQPPKLLIYHASTRESGVPDRFSGSGSGTDFTLTISSLQAEDVAVYYCQQHYETPLTFGQGTRLEIK

>  <binding result>
binds

$$$$
>  <Binder>
4.5 humanized variant 22 (HC2-1 / LC2-1) (antibody, V domains shown, Variable domains only; detected with anti-hIg secondary; also called VH2A / VL2A) VH: QITLKESGPTLVKPTQTLTLTCTFSGFSITTGGYYVGWIRQPPGKALEWLALIYTSGRTRYSPSLKSRLTITKDTSKNQVVLTMTNMDPVDTATYYCADMADKGGWFAYWGQGTLVTVSS VL: DIVMTQTPLSLPVTPGEPASISCRSSQSLFSSNTKRNYLDWYLQKPGQSPQLLIYHASYRASGVPDRFSGSGSGTDFTLKISRVEAEDVGVYYCQQHYETPLTFGQGTRLEIK

>  <binding result>
binds

$$$$
